Biological target: Jak2 (UniProt O60674)
Sequence (O60674 whole entry, looked up): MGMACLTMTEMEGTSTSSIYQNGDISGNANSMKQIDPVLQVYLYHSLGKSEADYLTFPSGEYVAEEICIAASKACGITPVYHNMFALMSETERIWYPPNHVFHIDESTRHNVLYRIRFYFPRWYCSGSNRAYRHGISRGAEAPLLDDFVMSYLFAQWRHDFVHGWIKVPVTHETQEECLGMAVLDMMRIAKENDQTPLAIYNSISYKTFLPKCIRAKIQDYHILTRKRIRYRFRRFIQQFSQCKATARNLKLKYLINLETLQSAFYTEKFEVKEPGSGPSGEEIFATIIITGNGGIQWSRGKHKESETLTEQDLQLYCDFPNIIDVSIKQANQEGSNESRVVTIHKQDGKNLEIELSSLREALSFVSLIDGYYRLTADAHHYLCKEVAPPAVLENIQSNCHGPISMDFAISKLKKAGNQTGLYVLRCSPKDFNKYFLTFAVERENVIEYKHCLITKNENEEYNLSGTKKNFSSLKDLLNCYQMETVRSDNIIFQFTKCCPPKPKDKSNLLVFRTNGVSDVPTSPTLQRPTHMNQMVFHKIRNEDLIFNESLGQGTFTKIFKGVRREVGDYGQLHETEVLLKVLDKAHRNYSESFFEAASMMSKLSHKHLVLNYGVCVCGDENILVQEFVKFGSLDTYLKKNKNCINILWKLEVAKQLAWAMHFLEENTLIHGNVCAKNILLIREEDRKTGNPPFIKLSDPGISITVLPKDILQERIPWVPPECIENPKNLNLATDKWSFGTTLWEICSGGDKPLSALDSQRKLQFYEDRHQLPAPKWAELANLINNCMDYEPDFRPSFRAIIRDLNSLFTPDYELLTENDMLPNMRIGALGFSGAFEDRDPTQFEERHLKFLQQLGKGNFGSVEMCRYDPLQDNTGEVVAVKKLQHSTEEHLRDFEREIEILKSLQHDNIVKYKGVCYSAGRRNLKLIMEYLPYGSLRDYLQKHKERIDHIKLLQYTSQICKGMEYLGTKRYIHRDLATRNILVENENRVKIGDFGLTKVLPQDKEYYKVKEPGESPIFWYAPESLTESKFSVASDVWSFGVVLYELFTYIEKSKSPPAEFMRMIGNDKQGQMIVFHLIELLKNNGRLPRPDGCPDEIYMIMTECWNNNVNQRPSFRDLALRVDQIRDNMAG
Assay: phosphorylation enrichment, bacterial display (enrichment ratio); higher = better substrate or ligand; peptides without Tyr show the background;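 also: 11-residue human phosphosite peptides and single-mutation variants displayed on the E. coli surface, counted by deep sequencing, each peptide's frequency after selection divided by its frequency in the unselected input library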;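 also: frequency after pTyr selection over input frequency; kinase dosed for 20-30% of maximal phosphorylation in three min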
Reported phosphorylation enrichment values follow for various sequences
Form field (numeric): enter value without unit.

Measured phosphorylation enrichment, EREFKYGAHNF [OAT_Y50_YF] : 0.483

====

Reported phosphorylation enrichment values follow for various sequences
Target: EPHB1 (UniProt P54762)
Sequence (P54762 whole entry, looked up): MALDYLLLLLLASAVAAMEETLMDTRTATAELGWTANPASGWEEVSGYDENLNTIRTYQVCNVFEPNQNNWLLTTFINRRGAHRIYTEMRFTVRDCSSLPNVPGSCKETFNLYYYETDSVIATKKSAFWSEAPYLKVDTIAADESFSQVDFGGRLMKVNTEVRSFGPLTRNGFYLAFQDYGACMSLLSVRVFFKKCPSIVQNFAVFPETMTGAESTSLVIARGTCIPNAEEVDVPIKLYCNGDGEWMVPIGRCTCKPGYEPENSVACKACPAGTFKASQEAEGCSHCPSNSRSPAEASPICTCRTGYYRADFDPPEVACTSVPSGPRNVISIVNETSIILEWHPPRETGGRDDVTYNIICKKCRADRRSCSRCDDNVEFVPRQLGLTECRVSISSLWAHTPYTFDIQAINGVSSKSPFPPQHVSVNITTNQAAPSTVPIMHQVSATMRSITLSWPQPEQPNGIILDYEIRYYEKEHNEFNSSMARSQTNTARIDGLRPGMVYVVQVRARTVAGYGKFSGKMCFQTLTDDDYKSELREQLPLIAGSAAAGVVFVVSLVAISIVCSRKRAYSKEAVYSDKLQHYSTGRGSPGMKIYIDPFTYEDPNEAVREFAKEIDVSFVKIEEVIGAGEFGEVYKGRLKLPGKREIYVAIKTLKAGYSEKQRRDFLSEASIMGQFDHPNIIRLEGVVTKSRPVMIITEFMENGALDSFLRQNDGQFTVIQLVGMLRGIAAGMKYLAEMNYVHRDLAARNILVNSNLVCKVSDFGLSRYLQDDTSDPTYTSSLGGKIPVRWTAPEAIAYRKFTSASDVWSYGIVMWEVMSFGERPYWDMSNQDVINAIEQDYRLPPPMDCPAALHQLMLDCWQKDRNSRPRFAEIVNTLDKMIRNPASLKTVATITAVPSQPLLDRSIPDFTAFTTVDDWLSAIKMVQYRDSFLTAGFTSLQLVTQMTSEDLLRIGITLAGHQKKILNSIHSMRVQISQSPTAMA
Experiment: phosphorylation enrichment, bacterial display (enrichment ratio); higher = better substrate or ligand; peptides without Tyr show the background
Form field (numeric): enter value without unit.

Some entries whose results are on file:
> print(dat)
                      sequence.text           reported.property  reported
1   LHSDHYSPSGR [TMPRSS12_Y23_Y19H]  phosphorylation enrichment     0.431
2     RSFLSYYTSHV [NEFL_Y442_P440L]  phosphorylation enrichment     0.998
3            ATVLNYLPKCI [A2M_Y817]  phosphorylation enrichment     0.662
4  GHEEFYSTHPH [LRRK2_Y1402_R1398H]  phosphorylation enrichment     0.617
5      NVVHEYSSELE [FGB_Y172_N170H]  phosphorylation enrichment     0.544

Measured phosphorylation enrichment, THQKSYQPGRK [CEFIP_Y210_N208K] : 0.273

Measured phosphorylation enrichment, DRLAVYIDRVS [LMNA_Y45_R50S] : 0.472

Measured phosphorylation enrichment, FHRQLYHKCTH [F12_Y58_YF] : 0.855

Measured phosphorylation enrichment, FCGFSYDDIPD [TMEM230_Y112_R108C_YF] : 0.694

Measured phosphorylation enrichment, TVLEPYTDPFF [ZC3H18_Y367_A368T_YF] : 0.463

Measured phosphorylation enrichment, PPEFSYGLQTQ [SRA1_Y35_Q32E] : 0.565

Measured phosphorylation enrichment, LRIAVYHEILI [CREBBP_Y1450_T1447I] : 5.55

Measured phosphorylation enrichment, ILGTYYETGSI [PAX2_Y73_R71T] : 2.54

Measured phosphorylation enrichment, KQRSDYARELE [MYH3_Y1140] : 0.38

Measured phosphorylation enrichment, LITTLYISFLG [KCNQ1_Y267_G269S] : 0.852

Measured phosphorylation enrichment, GREYIYVDPMQ [PDGFRA_Y574_H570R] : 6.9
